# collection of Ki values tested on Adenosine receptor A2a (Rattus norvegicus, UniProt P30543)
# Sequence (P30543 whole entry): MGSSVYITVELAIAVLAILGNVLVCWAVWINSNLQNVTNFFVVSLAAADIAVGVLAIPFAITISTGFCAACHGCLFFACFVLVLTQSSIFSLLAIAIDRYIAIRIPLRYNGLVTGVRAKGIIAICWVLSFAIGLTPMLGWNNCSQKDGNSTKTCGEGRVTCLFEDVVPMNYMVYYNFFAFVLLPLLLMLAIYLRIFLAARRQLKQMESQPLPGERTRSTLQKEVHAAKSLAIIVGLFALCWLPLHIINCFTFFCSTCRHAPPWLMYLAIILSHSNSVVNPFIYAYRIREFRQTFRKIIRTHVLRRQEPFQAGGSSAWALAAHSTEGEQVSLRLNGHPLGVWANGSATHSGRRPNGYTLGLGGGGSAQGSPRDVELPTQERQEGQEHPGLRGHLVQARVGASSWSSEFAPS
assay-readout: Ki (nM)

molecule=OC[C@H]1O[C@@H](n2cnc3c(NCC(c4ccccc4)c4ccccc4)ncnc32)[C@H](O)[C@@H]1O unit_tag=nM reported_relation== measured_number=75
molecule="OC[C@H]1O[C@@H](n2cnc3c(NC4CC4c4ccccc4)ncnc32)[C@H](O)[C@@H]1O (some centres undefined)" unit_tag=nM reported_relation== measured_number=2980
molecule=COc1ccccc1NC(=O)Nc1nc(-c2ccccn2)nc2ccccc12 unit_tag=nM reported_relation=> measured_number=10000
molecule=OC[C@H]1O[C@@H](n2cnc3c(N[C@@H]4C[C@H]4c4cccc(C(F)(F)F)c4)ncnc32)[C@H](O)[C@@H]1O unit_tag=nM reported_relation== measured_number=459
